- System: CCRIS mutagenicity, Ames/micronucleus/aberration tests
- assayRemarks: CCRIS mutagenicity studies
- measurementContext: Test System: AMES SALMONELLA TYPHIMURIUM; Strain/Indicator: TA100; Metabolic Activation: RAT, LIVER, S-9, PCB; Method: STANDARD PLATE
- Excerpt: The CCRIS database contains chemical records with carcinogenicity, mutagenicity, tumor promotion, and tumor inhibition test results. It was developed by the National Cancer Institute (NCI). Data are derived from studies cited in primary journals, current awareness tools, NCI reports, and other sources. Test results have been reviewed by experts in carcinogenesis and mutagenesis. CCRIS provides historical information from the years 1985 - 2011. It is no longer updated. […]
Calls of active or inactive are those of the source. The rule behind the calls is not given here.
// classify into Y for active, N for inactive

## Input Each molecule tested received a call. Report the one for c1ccc2c(c1)ccc1cccnc12 .
## Output Y

## Input Can you look up the reported call for OC/C=C/Cl for me?
## Output Y

## Input GET /call?item= F returns the recorded outcome of this test.
## Output N

## Input Hello, I am checking results. What call was entered for COc1ccc2cc([C@H](C)C(=O)O)ccc2c1 ?
## Output N

## Input What was the test verdict on c1ccc2c(c1)ccc1ccccc12 ?
## Output N

## Input I'd appreciate the recorded outcome for Clc1c2ccccc2cc2c1ccc1ccccc12 from this test.
## Output Y

## Input Please let me know the test result on file for O=P(OCCCl)(OCCCl)OCCCl .
## Output Y

* * *

- Tested on: CCRIS mutagenicity, Ames/micronucleus/aberration tests
- assayRemarks: CCRIS mutagenicity studies
- measurementContext: Test System: AMES SALMONELLA TYPHIMURIUM; Strain/Indicator: TA100; Metabolic Activation: RAT, LIVER, S-9, PCB; Method: PREINCUBATION
Active and inactive are the calls of the source. How the calls were made is not given here.
experimentalEndpoint: mutagenic call

Example compounds with recorded mutagenic call:
CC(C)[C@](O)(C(=O)O)[C@@H](C)O | inactive; negative
Cc1ccc(C)c(NO)c1 | active; positive
C1CNCCN1 | inactive; negative
NNc1nncc2ncccc12 | active; positive
CC(C)[C@@](O)(C(=O)OCC1=CCN2CC[C@@H](O)[C@@H]12)[C@H](C)O | inactive; negative
Nc1ccc(N=Nc2ccccc2)cc1 | active; positive
COc1nncc2ncccc12 | inactive; negative
Nc1ccc(Sc2ccc(N)cc2)cc1 | active; positive
CC(=O)Nc1ccccc1 | inactive; negative

## Input Form field: reported mutagenic call of CN1CCN(C)CC1
## Output inactive; negative

* * *

- Test system: CCRIS mutagenicity, Ames/micronucleus/aberration tests
- assayRemarks: CCRIS mutagenicity studies
- measurementContext: Test System: AMES SALMONELLA TYPHIMURIUM; Strain/Indicator: TA100; Metabolic Activation: NONE; Method: STANDARD PLATE
The source made the active and inactive calls. No rule for the calls is given here.
Choose one outcome from this list and give only that: true for active, false for inactive

## Input Can you look up the reported call for ClC(Br)Br for me?
## Output false

## Input How did this test come out for CCN(CCCl)CCCNc1c2ccccc2nc2ccccc12 ?
## Output true

## Input Tell me the recorded outcome of this test for ClC(Cl)=C(Cl)Cl .
## Output false

## Input Fill in: this test's call for COC1OC1(C)C (centres undefined) is ___
## Output true

## Input What classification did CCc1ccc(C)cc1 end up with in this test?
## Output false

## Input Would you mind telling me which call this test gave CC(C)CCCCCCOC(=O)CCCCC(=O)OCCCCCCC(C)C ?
## Output false

## Input Please let me know the test result on file for Oc1cccc2c1ccc1[nH]c3ccc4ccccc4c3c12 .
## Output true

## Input Hey, what did the test say about N#CC1=Cc2cccc3cccc1c23 ?
## Output true

## Input Given Cc1c(-c2cnccn2)ssc1=S , state the outcome it received in this test.
## Output false

## Input Recorded test call requested for Cc1cc(Cl)ccc1OCC(=O)O
## Output false

## Input Tell me the recorded outcome of this test for CCS(=O)(=O)CCn1c([N+](=O)[O-])cnc1C .
## Output true

## Input For this molecule, state the assay outcome: COc1ccccc1/C=C/C=O
## Output false

## Input # fetch the recorded call for Cc1ccc(C(C)(C)C)c(O)c1C(O)c1ncc([N+](=O)[O-])n1C (centres undefined) here
## Output false

## Input How was ClC[C@H]1CO1 classified in this test?
## Output true
